# PROTOCOL TEXT: Ionization constant, pKa of compound at pH 1 to 5
# Type: physicochemical
MEASUREMENT NAME: pKa
Answer with a number only.

Give reported pKa value for CC(C)CCNC(=O)c1ncccc1O
2.4

###

# PROTOCOL TEXT: Acidic ionization constant, pKa of the compound by potentiometric titration analysis
# Assay type: physicochemical
MEASUREMENT NAME: pKa
The reply should be a number, written without any unit.

Write down pKa measured for item NC(=O)c1ncn([C@@H]2O[C@H](CO)[C@@H](O)[C@H]2O)c1O [MIZORIBINE]
6.5

###

# PROTOCOL TEXT: 1-octanol/water partition coefficient, acidic logP of compound by shake flask method
# Type: physicochemical
Field: logP. Provide a value for each of the molecules that follow.
Lab note: jot the number down without any unit.

For the molecule N[C@@H](Cc1cc(I)c(Oc2ccc(O)c(I)c2)c(I)c1)C(=O)O , report logP.
4.1

Please give measured logP of the following entry: N[C@@H](Cc1cc(I)c(Oc2cc(I)c(O)c(I)c2)c(I)c1)C(=O)O
5.4

Hello, please tell me recorded logP for this one: CN1C(C(=O)Nc2ccccn2)=C(O)c2ccccc2S1(=O)=O
4

Read the entry CCc1cc(/C(C)=N/OCc2ccc(C3CCCCC3)c(C(F)(F)F)c2)ccc1CN1CC(C(=O)O)C1 and write its reported logP.
8.9

###

# PROTOCOL TEXT: Basic ionization constant, pKa of the compound
# Type: physicochemical
MEASUREMENT NAME: pKa
Give the figure only, with no unit attached.

Identify measured pKa corresponding to COc1ccnc(C(=O)NC2CCCCC2)c1O
2.3

Specify reported pKa for the compound shown: CC(C)CCNC(=O)c1ncccc1O
2.3

For the compound O=C(NC1CCCCC1)c1ncccc1O , give its reported pKa.
2.2

Indicate the recorded pKa value for this compound: CC(C)(C)NC(=O)c1ccccn1
2.1

Answer with the recorded pKa for the compound listed here: COc1cccc(CNC(=O)c2ncccc2OC)c1
2.9

Recall and state the measured pKa for CCOC(=O)CNC(=O)c1ncccc1O .
2.2

###

# PROTOCOL TEXT: Acidic ionization constant, pKa of the compound
# Format: physicochemical
Classification field: MET = pKa at or over 8; NOT MET = pKa under 8.

Please indicate if the recorded pKa for O=C(NC1CCCCC1)c1nccc(Cl)c1O meets or exceeds 8.
NOT MET

Decide: is the reported value of pKa for COc1ccnc(C(=O)NC2CCCCC2)c1O equal to or greater than 8?
MET

Is reported pKa greater than or equal to 8 here: Cc1ccnc(C(=O)NC2CCCCC2)c1O
MET

Decide: pKa of CN1C(C(=O)Nc2nccs2)=C(O)c2ccccc2S1(=O)=O >= 8?
NOT MET

###

# PROTOCOL TEXT: Ionization constant, pKa of compound
# Type: physicochemical
MEASUREMENT NAME: pKa

Annotate the compound Cc1ncc(CO)c(CO)c1O [PYRIDOXINE] with its measured pKa.
5
